Values compiled from ChEMBL document CHEMBL1122243.

molecular target: Thymidylate synthase (Lactobacillus casei); assay: Inactivation of thymidylate synthetase measured as k2 at 6.8 pH 30 degrees Celsius temp; details: Lacticaseibacillus casei
Sequence (P00469 whole entry): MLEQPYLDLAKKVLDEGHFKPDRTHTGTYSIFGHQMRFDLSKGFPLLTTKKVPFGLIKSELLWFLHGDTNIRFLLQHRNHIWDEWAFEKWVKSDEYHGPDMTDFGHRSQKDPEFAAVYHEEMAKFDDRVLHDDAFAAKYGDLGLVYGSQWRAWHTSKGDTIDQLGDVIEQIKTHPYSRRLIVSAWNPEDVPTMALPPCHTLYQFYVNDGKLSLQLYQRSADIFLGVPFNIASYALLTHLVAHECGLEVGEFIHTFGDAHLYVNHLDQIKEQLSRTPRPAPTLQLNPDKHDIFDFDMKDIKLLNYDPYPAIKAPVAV
endpointLabel: k2
Format: numeric value only, no unit, no commentary.

O=C1C=CC(=O)C(c2ccccc2)=C1 : 2600

Attention now shifts to the item below.
// Input: O=C(CBr)c1cn(C2CC(O)C(OP(=O)(O)O)O2)c(=O)[nH]c1=O (centres undefined) . Output its k2 only. 32000

* * *

target: Thymidylate synthase (Lactobacillus casei); assay: Inactivation of thymidylate synthetase measured as Ki at 6.8 pH 30 degrees Celsius temp; parameters: species or system Lacticaseibacillus casei
endpointLabel: Ki
# do not omit the unit; it follows the number

Specify Ki for O=C(CBr)c1cn([C@H]2C[C@H](O)[C@@H](COP(=O)(O)O)O2)c(=O)[nH]c1=O , system Thymidylate synthase (Lactobacillus casei). 4 µM
